- Assayed Target: hemagglutinin (HA) of influenza A/New York/107/03 (PR8) (influenza A virus A/New York/107/03 (PR8))
- Assay Remarks: cell-based or functional assay
Observation Type: VNA IC50 (nM)
Write the number in nM without appending the unit.

Task item: May I ask what VNA IC50 has been recorded for SD3099 (VHH) VHH: EVQLVESGGGLVQPGGSLRLSCAASGRTLSIYSMGWFRQAPGKEREFVATIGWNSGRTFYPDSVKGRFTISRDNSKNTLYLQMNSLRAEDTAVYYCAAAKGPLRLSSQADYWGQGTLVTVSS ?
Reply: 16

Task item: What does the data say about its VNA IC50? Entry: SD3067 (VHH) VHH: EVQLVESGGGLVQPGGSLRLSCAASGRTLSIYSMGWFRQAPGKEREFVATIGWNSGRTFYPDSLKGRFTISRDNSKNTLYLQMNSLRAEDTAVYYCAAAKGPLRLSSQADYWGQGTLVTVSS
Reply: 16

Task item: Value lookup for VNA IC50; key = SD1046 (VHH) VHH: EVQLVESGGGLVQAGDSLRISCAASGRTLSIYSMGWFRQAPGKEREFVATIGWNSGRTFYPDSLKGRFTISRDNARNTLYLQMNNLRPEDTAVYYCAAAKGPLRLSSQADYWGQGTQVTVSS
Reply: 34

Task item: I have this binder here, SD3068 (VHH) VHH: EVQLVESGGGLVQPGGSLRLSCAASGRTLSIYSMGWFRQAPGKEREFVSTIGWNSGRTFYPDSLKGRFTISRDNSKNTLYLQMNSLRAEDTAVYYCAAAKGPLRLSSQADYWGQGTLVTVSS , and I need its recorded VNA IC50.
Reply: 26
